Assay: in vivo
Settings: Yucatan miniature swine, pig
Protocol: Plasma standards and samples (50 μL) were extracted in 500 μL methanol containing 100 nM losartan (internal standard). Extracts were centrifuged at 16000×g for 5 minutes at 4° C. to precipitate proteins. […] Analytes (10 μL) were separated on an Agilent 1290 UPLC system with a c18 column using a gradient run of 50-95% acetonitrile over 2 minutes at 0.4 mL/minute and detected on an Agilent 6520 QTOF mass spectrometer. Standards within the quantifiable range were used to generate a standard curve. […]
MEASUREMENT LABEL: concentration at 57 day

stdin: Indicate its recorded concentration at 57 day; the molecule in question is "CCCCC(=O)N(Cc1ccc(-c2ccccc2-c2nnn[nH]2)cc1)[C@H](C(=O)O)C(C)C"
stdout: < 1 nM
